Data origin: the EternaBench riboswitch data

- Tested on: MS2 coat protein
- test-method-notes: apparent Kd, MS2 coat protein; higher = weaker binding; RNA-MaP array
- setup-conditions: designed as: ON switch for tryptophan; no ligand
value-type: apparent Kd (nM)

[[record]]
monomer_sequence = "UCGCUAUUGUCGGCCGCCACUACUGCAGGGAAACAAAUAUAACCACAUGAGGAUCACCCAUGUCUUAGGACCGGGACACCCAUCU"
assay_result = 98.3

[[record]]
monomer_sequence = "AUUAACAUGAGGAUCACCCAUGUUCUCACACGAGGACCGGUACGGCCGCCACUCGGUUUGGUAUUGGUCACUAGGCAGUUAGGAG"
assay_result = 15.9

[[record]]
monomer_sequence = "AGCGACAUGAGGAUCACCCAUGUACAUUCCCGAGGACCGGUACGGCCGCCACUCGAUGGAAGUGGUAGCAGCUUGGAUGGGCCUA"
assay_result = 15.7

[[record]]
monomer_sequence = "CGUUAAGAAUCGGCCGCCACUCCAUACGUGUGAAUCGCGGAUCGACAUGAGGAUCACCCAUGUCGGAGGACCGGGAUCCUCUUUC"
assay_result = 35


* * *

Entries and their measured apparent Kd follow.
- Tested on: MS2 coat protein
- test-method-notes: apparent Kd, MS2 coat protein; higher = weaker binding; RNA-MaP array
- setup-conditions: designed as: OFF switch for flavin mononucleotide; no ligand
value-type: apparent Kd (nM)

[[record]]
monomer_sequence = "CCUGGGACAUGAGGAUCACCCAUGUGUGUUAUCGGUGCGUGAGAGGAUAUACACAGCGUCCGUUAGUAGAAGGCUCAUGAUGUA"
assay_result = 88.3

[[record]]
monomer_sequence = "ACCCUGUGAGGAUAUUAUUAGCUCGGCCAUAAUAAGGAUAGUAAGAAGGCACAUGAGGAUCACCCAUGUAUCCU"
assay_result = 21.8

[[record]]
monomer_sequence = "AUUCGCCGAGGAUAUAAGUCGUUUGACAUGAGGAUCACCCAUGUUGUCAGUGGAAAUCGUUUAGAAGGCGGCCUCC"
assay_result = 18.9

[[record]]
monomer_sequence = "AUAACGACUUCAGGAUAUCUAAUAUGGCCUAUAUGCUGAAAACAUGAGGAUCACCCAUGUCAAGGAGAGAAGGGAAGACAAACA"
assay_result = 13.3

[[record]]
monomer_sequence = "GUCUAAGGCCAAGGAUAUUGCGUACUUGCGGAUGAUAGUAGAAAACAUGAGGAUCACCCAUGUCACAAGAAGGUGGUCCUGGGA"
assay_result = 323

[[record]]
monomer_sequence = "UUGUGACAUGAGGAUCACCCAUGUGAGGAUAUUCUGCUUGUGGAUAGUACGACUUGAUGAAGAAGGCACGUUAU"
assay_result = 34.7

[[record]]
monomer_sequence = "UUAUGUCGGUAGGAUAUUAGACGUGGUUAUACGUAAGAAGGACCAACAUGAGGAUCACCCAUGUGAGAUAGUUC"
assay_result = 14.4

[[record]]
monomer_sequence = "UCGCCGCUGGAGACAUGAGGAUCACCCAUGUGGUCUUUCGUAAGAAGGUGCCUAUAGAACUUUUGCAAGGAUAUUACGCCGGAG"
assay_result = 217

[[record]]
monomer_sequence = "GUCCUUAUAACAUGAGGAUCACCCAUGUAAUUCAAUCUGCGAGAGGAUAUGUCUGAGCAUCCCACACAGAAGGCUCCGGAACAG"
assay_result = 22.8

[[record]]
monomer_sequence = "GAUACUACAUAGAAGGUACCGAUGAGCAAUUAACAAUGUGCGGCAACAUGAGGAUCACCCAUGUGUAAGGAUAUAUGCAGAACA"
assay_result = 20.9

[[record]]
monomer_sequence = "CCGACCCAAGGAUAUACAUGAGGAUCACCCAUGUAUAAAAUAUACCAAGGUAAAAUAUGUAGAAGGAGGAUAUG"
assay_result = 6.54

[[record]]
monomer_sequence = "CCAGCUAAAGGAUAUACUGCCGGUGUUAUGUAAUAAUUGCAACAUGAGGAUCACCCAUGUAGAAGGUAAGUGAA"
assay_result = 11

[[record]]
monomer_sequence = "CUUACUCGUCUAGGAUAUCGAAUGCCAACAUGAGGAUCACCCAUGUGUGGGUUGAUCGUCUAGGCCGAGAAGGAGACUGCAAUC"
assay_result = 8.88

[[record]]
monomer_sequence = "GGAUACAGGAUAGGAUAUUCUGGGCCUUACAUGAGGAUCACCCAUGUGGAUUUUAUAUAUAGCCGGAAGAAGGAUCAACAGGUG"
assay_result = 11.8

[[record]]
monomer_sequence = "GUGGCUUCGGUGAGGAUAUGUCCGAUAAAACUGAGACAGAAGGCACAUGAGGAUCACCCAUGUAGCGUUGAUUC"
assay_result = 17.5

